# tgt: NRAS WT (Homo sapiens (Human), UniProt P01111+P62937)
# Sequence (P01111 whole entry, one chain of several): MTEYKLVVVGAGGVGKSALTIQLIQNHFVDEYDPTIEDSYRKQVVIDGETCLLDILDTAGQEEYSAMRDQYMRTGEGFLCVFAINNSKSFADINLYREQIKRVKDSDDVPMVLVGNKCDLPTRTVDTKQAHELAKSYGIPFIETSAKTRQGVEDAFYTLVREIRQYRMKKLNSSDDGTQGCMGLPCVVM
# assay.procedure: Ras-Raf (BRAF RBD) disruption / FRET / MOA assay, NRAS WT
# Assay type: biochemical
# test.context: read-out: IC50* NRAS WT FRET data
readout: IC50

Request: IC50, test system NRAS WT (Homo sapiens (Human), UniProt P01111+P62937), entry C=CC(=O)N(C)C[C@H]1CCN(C(=O)N(C)[C@H](C(=O)N[C@H]2Cc3nc(cs3)-c3ccc4c(c3)c(c(-c3cccnc3[C@H](C)OC)n4CC)CC(C)(C)COC(=O)[C@@H]3CCCN(N3)C2=O)C(C)C)C1 (atropisomer, axis not shown)
0.1 to 1 µM

Others:
Entry CCn1c(-c2cccnc2[C@H](C)OC)c2c3cc(ccc31)-c1cccc(n1)C[C@H](NC(=O)[C@H](C(C)C)N(C)C(=O)N1CCC13CN(C(=O)C#CC(C)(C)N(C)C)C3)C(=O)N1CCC[C@H](N1)C(=O)OCC(C)(C)C2 (atropisomer, axis not shown) , system NRAS WT (Homo sapiens (Human), UniProt P01111+P62937): what IC50 was measured?
1 to 10 µM

Given the entry C=CC(=O)N1CC[C@H](C(=O)N(C)C(C(=O)N[C@H]2C[C@H]3CN(CCO3)c3ccc4c(c3)c(c(-c3cccnc3[C@H](C)OC)n4CC)CC(C)(C)COC(=O)[C@@H]3CCCN(N3)C2=O)C(C)C)C1 (mixture of isomers) , what IC50 was observed with NRAS WT (Homo sapiens (Human), UniProt P01111+P62937)?
1 to 10 µM

Form field: IC50 recorded for CCn1c(-c2cccnc2[C@H](C)OC)c2c3cc(ccc31)N1CCC[C@@H](C[C@H](NC(=O)[C@H](C(C)C)N(C)C(=O)[C@H]3CCN(C(=O)C#CC(C)(C)N4CCC4)C3)C(=O)N3CCC[C@H](N3)C(=O)OCC(C)(C)C2)C1 (atropisomer, axis not shown) with NRAS WT (Homo sapiens (Human), UniProt P01111+P62937) (enter value)
> 10 µM

State its IC50 on NRAS WT (Homo sapiens (Human), UniProt P01111+P62937): CO[C@@H](C)c1ncccc1-c1c2c3cc(ccc3n1CC(F)(F)F)-c1csc(n1)C[C@H](NC(=O)[C@H](C(C)C)N(C)C(=O)N1CCN(C(=O)/C=C/CN(C)C)C3(CC3)C1)C(=O)N1CCC[C@H](N1)C(=O)OCC(C)(C)C2 (atropisomer, axis not shown)
0.01 to 0.1 µM

Form field - read-out: IC50; system: NRAS WT (Homo sapiens (Human), UniProt P01111+P62937); submitted item: C=CC(=O)N(C)[C@@H]1C[C@H]1N(C)C(=O)N(C)[C@H](C(=O)N[C@H]1Cc2nc(cs2)-c2ccc3c(c2)c(c(-c2cccnc2[C@H](C)OC)n3CC)CC(C)(C)COC(=O)[C@@H]2CCCN(N2)C1=O)C(C)C (atropisomer, axis not shown)
0.1 to 1 µM

Test system NRAS WT (Homo sapiens (Human), UniProt P01111+P62937); read-out IC50; what value for C=CC(=O)N1CC[C@]2(C1)CN(C(=O)N(C)[C@H](C(=O)N[C@H]1Cc3nc(cs3)-c3ccc4c(c3)c(c(-c3cccnc3[C@H](C)OC)n4CC)CC(C)(C)COC(=O)[C@@H]3CCCN(N3)C1=O)C(C)C)CCO2 (atropisomer, axis not shown) ?
0.1 to 1 µM

====

# tgt: KRAS WT (Homo sapiens (Human), UniProt P01116+P62937)
# Sequence (P01116-2 other isoform, or with tags, fused parts or gaps): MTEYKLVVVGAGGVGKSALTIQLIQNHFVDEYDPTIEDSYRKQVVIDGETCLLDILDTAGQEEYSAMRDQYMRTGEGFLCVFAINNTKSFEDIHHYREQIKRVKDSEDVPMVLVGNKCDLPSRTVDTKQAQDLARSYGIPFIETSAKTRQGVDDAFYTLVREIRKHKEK
# Sequence (P62937 whole entry): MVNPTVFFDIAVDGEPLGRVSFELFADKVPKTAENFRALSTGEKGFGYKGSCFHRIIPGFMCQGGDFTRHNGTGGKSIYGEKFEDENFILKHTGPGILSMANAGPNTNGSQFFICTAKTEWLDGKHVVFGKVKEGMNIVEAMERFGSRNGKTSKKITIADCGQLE
# assay.procedure: Ras-Raf (BRAF RBD) disruption / FRET / MOA assay, KRAS WT
# Type: biochemical
# test.context: read-out: IC50* KRAS WT FRET data
pIC50: −log10 of the molar value.
This listing pairs compounds with measured pIC50.

What reported pIC50 corresponds to C=CC(=O)N1CC[C@H](C(=O)N(C)[C@H](C(=O)N[C@H]2Cc3cc(C)cc(c3)-c3ccc4c(c3)c(c(-c3cccnc3[C@H](C)OC)n4CC)CC(C)(C)COC(=O)[C@@H]3CCCN(N3)C2=O)C(C)C)C1 (atropisomer, axis not shown) on KRAS WT (Homo sapiens (Human), UniProt P01116+P62937)?
5.00 to 6.00

Then there is this compound:
What measured pIC50 is associated with C=CC(=O)N1CC[C@H](C(=O)N(C)[C@H](C(=O)NC2C[C@H]3CN(CCCO3)c3ccc4c(c3)c(c(-c3cccnc3[C@H](C)OC)n4CC)CC(C)(C)COC(=O)[C@@H]3CCCN(N3)C2=O)C(C)C)C1 (single isomer, unassigned) on KRAS WT (Homo sapiens (Human), UniProt P01116+P62937)?
< 5.00

====

# tgt: NRAS G12C (Homo sapiens (Human), UniProt P01111+P62937, G12C)
# Sequence (P01111 whole entry G12C): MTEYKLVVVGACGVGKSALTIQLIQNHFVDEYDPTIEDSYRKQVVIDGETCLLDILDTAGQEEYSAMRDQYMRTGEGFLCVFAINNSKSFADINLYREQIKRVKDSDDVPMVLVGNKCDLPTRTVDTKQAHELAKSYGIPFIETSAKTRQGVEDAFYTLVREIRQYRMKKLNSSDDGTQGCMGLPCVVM
# Sequence (P62937 whole entry): as the sequence (P62937 whole entry) above
# assay.procedure: Ras-Raf (BRAF RBD) disruption / FRET / MOA assay, NRAS G12C
# Type: biochemical
# test.context: read-out: IC50* NRAS G12C FRET data
pIC50: −log10 of the molar value.
Listed next: entries and their corresponding pIC50.

Example compounds with recorded pIC50:
Please look up its pIC50: CCn1c(-c2cccnc2[C@H](C)OC)c2c3cc(ccc31)-c1cccc(c1)C[C@H](NC(=O)[C@H](C(C)C)N1CC[C@]3(CCN(C(=O)C#C[C@H]4COCCN4C4COC4)C3)C1=O)C(=O)N1CCC[C@H](N1)C(=O)OCC(C)(C)C2 (atropisomer, axis not shown) [Example A568]
6.00 to 7.00

Give the measured pIC50 of C=CC(=O)N1CC[C@H](C(=O)N(C)[C@H](C(=O)NN2Cc3cc(O)cc(c3)-c3ccc4c(c3)c(c(-c3cccnc3[C@H](C)OC)n4CC)CC(C)(C)COC(=O)[C@@H]3CCCN(N3)C2=O)C(C)C)C1 (atropisomer, axis not shown) [Example A233] .
7.00 to 8.00

With those in mind, consider the next compound.
// query pIC50 value for entry C=CC(=O)N1CCO[C@H]2CN(C(=O)N(C)[C@H](C(=O)N[C@H]3Cc4coc(n4)-c4ccc5c(c4)c(c(-c4cccnc4[C@H](C)OC)n5CC(F)(F)F)CC(C)(C)COC(=O)[C@@H]4CCCN(N4)C3=O)C(C)C)C[C@H]21 (atropisomer, axis not shown) [Example A574]
7.00 to 8.00

====

# tgt: KRAS G13D (Homo sapiens (Human), UniProt P01116+P62937, G13D)
# Sequence (P01116-2 other isoform, or with tags, fused parts or gaps G13D, one chain of several): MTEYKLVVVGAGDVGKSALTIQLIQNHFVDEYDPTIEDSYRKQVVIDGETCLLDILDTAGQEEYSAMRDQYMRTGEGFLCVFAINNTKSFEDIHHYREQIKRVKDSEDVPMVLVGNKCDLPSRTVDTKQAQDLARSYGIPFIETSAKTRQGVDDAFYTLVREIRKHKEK
# assay.procedure: Ras-Raf (BRAF RBD) disruption / FRET / MOA assay, KRAS G13D
# Format: biochemical
# test.context: read-out: IC50* KRAS G13D FRET data
# Procedure: The purpose of this biochemical assay is to measure the ability of test compounds to facilitate ternary complex formation between a nucleotide-loaded Ras isoform and cyclophilin A; the resulting ternary complex disrupts binding to a BRAF^RBD construct, inhibiting Ras signaling through a RAF effector. Compound is present in plate wells as a 10-point 3-fold dilution series starting at a final concentration of 30 μM. […]
pIC50: −log10 of the molar value.
readout: pIC50

For C=CC(=O)N1CCC2(CC1)OCN([C@H](C(=O)N[C@H]1Cc3cccc(c3)-c3ccc4c(c3)c(c(-c3cccnc3[C@H](C)OC)n4CC)CC(C)(C)COC(=O)[C@@H]3CCCN(N3)C1=O)C(C)C)C2=O (atropisomer, axis not shown) , what is its reported pIC50?
5.00 to 6.00

Fill in the blank: the reported pIC50 of `CC#CC(=O)N1CC[C@@H](C(=O)N(C)[C@H](C(=O)N[C@H]2Cc3cc(O)cc(c3)-c3ccc4c(c3)c(c(-c3cncnc3)n4CC)CC(C)(C)COC(=O)[C@@H]3CCCN(N3)C2=O)C(C)C)C1` is ____.
< 5.00

Consider the compound CCn1c(-c2cccnc2[C@H](C)OC)c2c3cc(ccc31)-c1csc(n1)C[C@H](NC(=O)[C@H](C(C)C)N1CC[C@@]3(CCN(C(=O)C#CC(C)(C)N(C)C)C3)C1=O)C(=O)N1CCC[C@H](N1)C(=O)OCC(C)(C)C2 (single isomer, unassigned) and give its measured pIC50.
< 5.00

Others:
Recorded pIC50 for C=CC(=O)N1CCOC2(CCN(C(=O)N(C)[C@H](C(=O)N[C@H]3Cc4cc(C(F)F)cc(n4)-c4ccc5c(c4)c(c(-c4cccnc4[C@H](C)OC)n5CC(F)(F)F)CC(C)(C)COC(=O)[C@@H]4CCCN(N4)C3=O)C(C)C)CC2)C1 (atropisomer, axis not shown) , please?
5.00 to 6.00

====

# tgt: NRAS Q61R (Homo sapiens (Human), UniProt P01111+P62937, Q61R)
# Sequence (P01111 whole entry Q61R, one chain of several): as the sequence (P01111 whole entry, one chain of several) above, with Q61R counted along it
# assay.procedure: Ras-Raf (BRAF RBD) disruption / FRET / MOA assay, NRAS Q61R
# Type: biochemical
# test.context: NRAS Q61R; Ras-Raf disruption/FRET/MOA assay; read-out: IC50* NRAS Q61R FRET data
Measured IC50 of individual entries

For orientation, consider the following solved cases.
Request the reported IC50 associated with C=CC(=O)N1CC[C@H](C(=O)N(C)[C@H](C(=O)N[C@H]2Cc3cccc(n3)-c3ccc4c(c3)c(c(-c3cccnc3[C@H](C)OC)n4CC)CC(C)(C)COC(=O)[C@@H]3CCCN(N3)C2=O)C(C)C)C1 (atropisomer, axis not shown)
1000 to 10000 nM

Reported IC50, compound CCn1c(-c2cccnc2[C@H](C)OC)c2c3cc(ccc31)-c1nc(nn1C)C[C@H](NC(=O)[C@@H](COC1CN(C(=O)C#CC(C)(C)N(C)C)C1)C(C)C)C(=O)N1CCC[C@H](N1)C(=O)OCC(C)(C)C2 (atropisomer, axis not shown) : ____
1000 to 10000 nM

More entries:
State the recorded IC50 for this entry: CCn1c(-c2cccnc2[C@H](C)OC)c2c3cc(ccc31)-c1csc(n1)C[C@H](NC(=O)[C@@H](F)COC1CN(C(=O)C#CC(C)(C)N(C)C)C1)C(=O)N1CCC[C@H](N1)C(=O)OCC(C)(C)C2 (atropisomer, axis not shown)
1000 to 10000 nM

Please give the measured IC50 for this compound: `C=CS(=O)(=O)N1CC[C@H](C(=O)N(C)[C@H](C(=O)N[C@H]2Cc3cc(O)cc(c3)-c3ccc4c(c3)c(c(-c3cncnc3)n4CC)CC(C)(C)COC(=O)[C@@H]3CCCN(N3)C2=O)C(C)C)C1`
> 10000 nM

May I ask what IC50 has been recorded for `C=CC(=O)N1CC[C@H](C(=O)N(C)[C@H](C(=O)N[C@H]2Cc3cc(O)cc(c3)-c3ccc4c(c3)c(c(-c3cncc5c3[C@@H](OC)CC5)n4CC)CC(C)(C)COC(=O)[C@@H]3CCCN(N3)C2=O)C(C)C)C1` ?
100 to 1000 nM

Quick one: IC50 for CCn1c(-c2cccnc2[C@H](C)OC)c2c3cc(ccc31)-c1csc(n1)C[C@H](NC(=O)[C@H](C(C)C)N(C)C(=O)N1C[C@H]3CN(C(=O)C#CC(C)(C)N(C)C)CC[C@H]31)C(=O)N1CCC[C@H](N1)C(=O)OCC(C)(C)C2 (atropisomer, axis not shown) ?
100 to 1000 nM

Consider the compound C=CC(=O)N(C)[C@@H]1C[C@H](C)N(C(=O)N(C)[C@H](C(=O)N[C@H]2Cc3nc(cs3)-c3ccc4c(c3)c(c(-c3cccnc3[C@H](C)OC)n4CC)CC(C)(C)COC(=O)[C@@H]3CCCN(N3)C2=O)C(C)C)C1 (atropisomer, axis not shown) and give its measured IC50.
10 to 100 nM

For the compound shown here, CCn1c(-c2cccnc2[C@H](C)OC)c2c3cc(ccc31)-c1nc(co1)C[C@H](NC(=O)[C@@H](COC1CN(C(=O)C#CC(C)(C)N(C)C)C1)C(C)C)C(=O)N1CCC[C@H](N1)C(=O)OCC(C)(C)C2 (atropisomer, axis not shown) , give the reported IC50.
> 10000 nM
